test: Drug uptake in NCr nude mouse tumor xenografted with human SKOV3 cells at 20 mg/kg, po qd measured after 33 days; format: ADME, organism-based, Neoplasm; conditions: read-out: Drug uptake

{"columns": ["STRUCTURE_NOTATION", "QUANTITY_UNIT", "concentration at […]"],
 "data": [
  ["Cc1ccc(NC(=O)c2ccc3c(c2)OCCO3)cc1NC(=O)c1ccc2nc(OCCN3CCCC3)ccc2c1", "µM", 0.94]
]}
